Target: human recombinant dopamine D3 receptor (Homo sapiens (Human), UniProt P35462)
Sequence (P35462 whole entry): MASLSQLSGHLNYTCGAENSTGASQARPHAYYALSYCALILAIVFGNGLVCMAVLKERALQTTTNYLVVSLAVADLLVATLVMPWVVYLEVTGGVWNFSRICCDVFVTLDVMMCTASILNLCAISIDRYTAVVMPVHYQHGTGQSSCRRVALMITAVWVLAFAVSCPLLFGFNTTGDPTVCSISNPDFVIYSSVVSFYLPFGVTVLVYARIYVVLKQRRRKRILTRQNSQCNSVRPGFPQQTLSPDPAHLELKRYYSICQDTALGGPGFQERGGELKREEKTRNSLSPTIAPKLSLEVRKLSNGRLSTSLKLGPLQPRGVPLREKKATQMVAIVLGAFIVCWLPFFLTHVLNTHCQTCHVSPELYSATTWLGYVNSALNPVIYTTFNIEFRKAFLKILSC
Assay: Test of binding inhibition for dopamine D3 receptor ([3H]-Methylspiperone SPA)
Details: Jump-In HEK cell membranes, 2 nM [3H]-Methylspiperone, 120 min at 25° C.; read-out: hD3_Ki
Category scheme (Ki): 0: < 0.1 nM; 1: ≥ 0.1 nM and < 0.3 nM; 2: ≥ 0.3 nM

Which class is correct for the following compound? Cc1ncccc1C(=O)N[C@H]1CC[C@H](CCN2CCc3nc(OC4CC(F)(F)C4)sc3CC2)CC1
2

Now this one: Cn1cc(CC(=O)N[C@H]2CC[C@H](CCN3CCc4ccc(CCC(F)(F)F)nc4CC3)CC2)cn1
1

Now this one: Cn1ncc(CC(=O)N[C@H]2CC[C@](F)(CCN3CCc4nc(OCC(F)(F)F)sc4CC3)CC2)c1F
1

Now this one: Cn1cc2c(C(=O)N[C@H]3CC[C@H](CCN4CCc5ccc(OCC(C)(C)F)nc5CC4)CC3)cccc2n1
1

Now this one: Cc1nnc(CC(=O)N[C@H]2CC[C@](F)(CCN3CCc4nc(OCC(F)F)sc4CC3)CC2)s1
2

Now this one: COc1cc(CC(=O)N[C@H]2CC[C@H](CCN3CCc4nc(OCC(C)(F)F)sc4CC3)OC2)on1
1

Now this one: Cc1nc(CC(=O)N[C@H]2CC[C@H](CCN3CCc4ccc(CCC(F)(F)F)nc4CC3)CC2)no1
1

Now this one: Cc1nnc(CC(=O)N[C@H]2CC[C@](F)(CCN3CCc4ccc(OCC(C)(F)F)nc4CC3)CC2)s1
0

Now this one: Cn1ccc2c(C(=O)N[C@H]3CC[C@H](CCN4CCc5nc(OCC(C)(F)F)sc5CC4)CC3)cccc2c1=O
1

Now this one: Cn1ncc(CC(=O)N[C@H]2CC[C@](F)(CCN3CCc4ccc(OC5CCC5)nc4CC3)CC2)n1
2

Now this one: Cc1ncc(/C=C/C(=O)N[C@H]2CC[C@](F)(CCN3CCc4ccc(OCC(C)(F)F)nc4CC3)CC2)cn1
0

Now this one: COC(CN1CCc2sc(OCC(F)(F)F)nc2C1)[C@H]1CC[C@H](NC(=O)c2cccc3nn(C)cc23)CC1 (some centres unmarked)
1

Now this one: Cc1nc(CC(=O)N[C@H]2CC[C@](F)(CCN3CCc4nc(OCC(C)(F)F)sc4CC3)CC2)no1
2

Now this one: Cc1nnc(CC(=O)N[C@H]2CC[C@H](CCN3CCc4ccc(CCC(F)(F)F)nc4CC3)CC2)s1
1

Now this one: Cc1ncc(CC(=O)N[C@H]2CC[C@H](CCN3CCc4sc(OC5CC(F)(F)C5)nc4C3)CC2)o1
2

Now this one: CC(Oc1ccc2c(n1)CCN(CC[C@H]1CC[C@H](NC(=O)c3cccc4nn(C)cc34)CC1)CC2)C(F)F (single isomer, unassigned) [Example I-124]
0

Now this one: Cc1ncc(/C=C/C(=O)N[C@H]2CC[C@H](CCN3CCc4nc(OC5CC(F)(F)C5)sc4CC3)CC2)cn1
0

Now this one: Cc1ncc(/C=C/C(=O)N[C@H]2CC[C@](F)(CCN3CCc4nc(OCC(F)F)sc4CC3)CC2)cn1
2

// data source = patent US11578084B2
